# SYSTEM UNDER TEST: Cytochrome P450 2D6 (Homo sapiens)
# Sequence (P10635 whole entry): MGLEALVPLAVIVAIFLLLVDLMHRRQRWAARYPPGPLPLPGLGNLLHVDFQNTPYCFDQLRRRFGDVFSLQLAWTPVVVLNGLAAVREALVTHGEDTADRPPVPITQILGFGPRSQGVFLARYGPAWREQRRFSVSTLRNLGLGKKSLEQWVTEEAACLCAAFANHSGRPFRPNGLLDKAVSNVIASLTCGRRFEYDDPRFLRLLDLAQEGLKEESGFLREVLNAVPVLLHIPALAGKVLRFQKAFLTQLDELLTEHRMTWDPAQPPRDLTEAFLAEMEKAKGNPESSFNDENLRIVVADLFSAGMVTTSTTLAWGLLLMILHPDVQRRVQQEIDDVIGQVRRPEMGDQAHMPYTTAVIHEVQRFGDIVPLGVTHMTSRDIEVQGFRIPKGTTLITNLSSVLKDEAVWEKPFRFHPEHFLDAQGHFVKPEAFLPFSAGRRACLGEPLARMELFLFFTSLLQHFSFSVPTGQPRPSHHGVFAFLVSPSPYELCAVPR
ASSAY READOUT: IC50

Look up IC50 of Cc1cc(Cc2cc(-c3ccc(Br)cc3)on2)cc(C)c1OC(C)(C)C(=O)O and report it.
> 50 µM

---

# PROTOCOL: Tmax in C57BL/6J mouse at 10 mg/kg, po measured upto 24 hrs by LC-MS/MS analysis
# Format: ADME, organism-based
# ASSAY SETUP: in vivo
ASSAY READOUT: Tmax (min)
Give your result in min as a bare value.

Look up Tmax of Cc1cc(Cc2cc(-c3ccc(Br)cc3)on2)cc(C)c1OC(C)(C)C(=O)O and report it.
19.8
